Test system: PPARg DBDmut:RXRa IVT, anti-PPARg (DBD mutation: PPARg1 K132A/R137A, NR concentration 270 nM, RXRa partner concentration 90 nM)
Experiment: PBM binding z-score (relative to random genomic background probes); higher = stronger binding; sequences stand for … in GC…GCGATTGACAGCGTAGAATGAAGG
Entries and their PBM binding z-score values follow.
metric: PBM binding z-score

biosequence: TCTGCTAGGCCAACGATGGTCAGCTAATCTGCTA
obs value: -0.0832

biosequence: ATATGTAGGTTAAGGGTCATACAGGTTGGTTCGC
obs value: 4.09

biosequence: TCTAATTGGTCAAAGGTCACACACTCGAAATGCG
obs value: 4.31

biosequence: ATACCAAGGTGATCGTGAGGACGTTGATACTAAC
obs value: 0.678

biosequence: GTTAGTTGGTCAGTAAAAGGTCACACACCGGTCG
obs value: 1.57

biosequence: CGTCCAAGGTCATGGTCAGTGAAAGAGACTCGAA
obs value: 0.127

biosequence: CTTACAGGGTCAGCTAGGCCAGAGTAGGGACGGC
obs value: -0.146

biosequence: TCTGCTAAGTCAACGATGGTCAGCTAATCTGCTA
obs value: -0.69

biosequence: CGTCCAAGGTCATAGGAGGTCAGTGGAGACAGAT
obs value: 1.06

biosequence: CGTCCAAAGTCAATGCTAGGTCAGTGAAAGCATT
obs value: -0.669

biosequence: TCTTGTAGATCAATAGAGGTTACGAAAGTGCGCT
obs value: 0.944

biosequence: ATATGTAGGTTATCCGGTCATTCAGTTTGCGCAT
obs value: 1.53

biosequence: GCTAGCAGGCCATTTGGATCACTCAATGACGGGC
obs value: -0.26

biosequence: ACTATTAGTTGACTAAGGGCAACCGATACGACGC
obs value: 0.688

biosequence: CCTCGGAGGACAACAGGAGCTCAGAGCTGCCAGA
obs value: -1.06

biosequence: CCTGCTAGGTCATGGTCAGCTGATCTACAGTATG
obs value: 0.184

biosequence: TCTGCTAGGTCAGTTGGTCTGCTAACGAGCTGCC
obs value: 0.337

biosequence: AGAATGAGGCTAAGATCAGGGAAACAGAATACAT
obs value: 0.582

biosequence: GCTGCTAGATCAACTGATGGTCAGCTAAAGCTCG
obs value: -0.911

biosequence: CTCGAAAGGTCGTGCTCAGGTGAGCATACCAAAC
obs value: 0.195

biosequence: TGTTGTAGATCAAAGGTTAAGAAAGCCGAAGCCT
obs value: 0.531

biosequence: TCGCCTAGGTCATTGGGCCAGTATAGTACGCATC
obs value: -0.283

biosequence: CCTTACGGGTCACTCCAGGTTATAGCTTCGGAGT
obs value: 0.585

biosequence: CAGCCTAGGTCAGGGCCAGTGTAGGAGGAACGTT
obs value: -0.0989

biosequence: ACTCGGAGGACAAAGGTCGGAGCTACGCCAGTGA
obs value: -0.143

biosequence: ATCGAACGGTCGAAGGTGAGTATACCCACCCGAA
obs value: 0.226

Just for reference, the supplement of paper PMC6555819 is where these values come from.
